assay: yeast display, Sf9 membrane polyspecificity reagent, FACS + sequencing; frameworks hold sequencing errors

{"sequence_code": "QVQLVESGGGLVQAGGSLRLSCAASGSTFDRYAMGWYRQAPGKERELVAAISWSGGSTYYADSVKGRFTISRDNAKNTVYLQMNSLKPEDTAVYYCARRYARITPVYAPLNYWGQGTQVTVSS", "polyreactivity (PSR sort gate)": "high polyreactivity"}
{"sequence_code": "QVLLVESGGGLVQAGGILRLSCAASGNILGYNAMGWSRQAPGKERELVAAISWIGGSTYYADSVKGRFTISRDNAKNTVYLQMNSLKQEDTAVYYCASRYRTYFTYEYWGQVTQVTVSS", "polyreactivity (PSR sort gate)": "low polyreactivity"}
{"sequence_code": "QVQLVESGGGLVQAGGSLRLSCAASGFTFGHYAMGWSRQAPGKERELVAAISKSGTRTYYADSVKGRFTISRDNAKNTVYLQMNSLKPEDTAVYYCATTAYNGYDHWGQGTQVTVSS", "polyreactivity (PSR sort gate)": "high polyreactivity"}
{"sequence_code": "QVQLVESGGGLVQAGGSLRLSCAASGLIFGDYVMGWYRQAPGKERELVAAISNNGDSTYYADSVKGRFTISRDNAKNTVYLQMNSLIPEDTAVYYCNADGDRGGYVLTEHDSWGQGTQVTVSS", "polyreactivity (PSR sort gate)": "low polyreactivity"}
{"sequence_code": "HVQLVESGGGLVQAGGSLRLSCAASGSIFSGNAMGWSRQAPGKERELVAAIDWSGDSTYYADSVKGRFTLSRDNAKNTVYLQMNSLKPEDTAVYYCNTVSFSWGYSAYDYWGQGTQVTVSS", "polyreactivity (PSR sort gate)": "low polyreactivity"}
{"sequence_code": "QVQLVESGGGLVQAGGSLRLSCAASGITIKRYAIGWYRQAPGKEREFVATISQSGTSTYYADSVKGRFTISRDNAMNTVYLQMNSLKPEDTAVYYCAADYIGYWYGYYSWGQGTQVTVSS", "polyreactivity (PSR sort gate)": "low polyreactivity"}
{"sequence_code": "QVQLVESGGGLVQAGGSLRLSCAASGSTFDPYAMGWYRQAPGKERELVAAITSGGGTKYADSVKGRFTISRDNAKNTVYLQMNSLKPEDTAVYYCATDIRAEHGYWGQGTQVTVSS", "polyreactivity (PSR sort gate)": "low polyreactivity"}
{"sequence_code": "QVQLVESGGGLVQAGGSLRLSCAASGRIFYQYAMGWYRQAPGKERELVAAIRYRDDGTYYADSVKGRFTISRDNAKNTVYLQMNSLKPEDTAVYYCAAKQWGRYGFWGQGTQVTVSS", "polyreactivity (PSR sort gate)": "high polyreactivity"}
{"sequence_code": "QVQLVESGGGLVQAGGSLRLSCAASGRIFRFYAMGCYIQAPGKERELVAVITARGGSTYYADSVKGRFTISRDNAKNNVYLQMNSLKPEDTAVYYCASTRVKGYTVVKSRRGEIDYWGQGTQVTVSS", "polyreactivity (PSR sort gate)": "high polyreactivity"}
{"sequence_code": "QVQLVESGGGLVQAGGSLRLSCAASGLIFGYNAMGWYRQAPGKERELVASINWSTGRTRYADSVKGRFTISRDNAKNTVYLQMNSLKPEDTAVYYCAARLYNPYPYEYWGQGTQVTVSS", "polyreactivity (PSR sort gate)": "high polyreactivity"}
{"sequence_code": "QVQLVESGGGLVQAGGSLRLSCAASGSIFTPYAMGWYRQAPGKESELVAAIRSGTSTNYADSVKGRFTISRDNAKNTVYLQMNSLKPEDTAVYYCAAVYWSRFYVRYDYWGQGTQVTVSS", "polyreactivity (PSR sort gate)": "high polyreactivity"}
{"sequence_code": "QVQLVESGGGLVQAGGSLRLSCAASGIIFGGYTMGWYRQAPGKERELVAAISSTGASTYYADSVEGRFTISRDNAKNTVYLQMNSLKPEDTAVYYCNAKRAPWGTLYNYWGQGTQVTVSS", "polyreactivity (PSR sort gate)": "high polyreactivity"}
{"sequence_code": "QVQLVESGGGLDQAGGSLRLSCAASGIIFPVYARGGYRQAPGKERELVAAISSVGSTNYADSVKGRFTISRDNAKNTVYLQMNSLKPEDTAVYYCAVDWAQEDGYWGQGPQVTVSS", "polyreactivity (PSR sort gate)": "low polyreactivity"}
{"sequence_code": "QVQLVESGGGLVQAGGSLRLSCAASGRIYNYYAMGWYIPAPGKERELVAAISSSGGRTYYADSVKGRFTISRDNAKNTVYLQMNSLKPEDTAVYYCAAYDSLRYSTYDYWGQGTQVTVSS", "polyreactivity (PSR sort gate)": "high polyreactivity"}
{"sequence_code": "QVQLVESGGGLVQAGGSLRLSCAASGLTFSRNGMGWYRQAAGKERELVAAISTSGDSTDYADSVKGRFTISRDYAKNTVYLQMNSLKPEDTAVYYCNRDFSLVVHYNFDYWGQGTQVTVSS", "polyreactivity (PSR sort gate)": "low polyreactivity"}
{"sequence_code": "QVQLVESGGGLVQAGGSLRLSCAASGRTFRPYAMGWYRQAPGKERELVAAISSGGSTYYADSVKGRFTISRDNAKNTVYLQMNSLKPEDTAVYYCNAVGLWARDYGYWGQGTQVTVSS", "polyreactivity (PSR sort gate)": "high polyreactivity"}
{"sequence_code": "QDQLVESGGGLVQAGGSLRLSCAASGRIFYLNAMGWYRQAPGKERELVAAINTSGDSTYYADSVKGRFTISRDIAKNTVYLQMNSLKQEDTAVYYCAAYVIGPDQFIYDYWGQGTQVTVSS", "polyreactivity (PSR sort gate)": "low polyreactivity"}
{"sequence_code": "QVQLVESGGGLVQAGGSLRLSCAASGRIFGGYAMGWYRQAPGKERELVAAIDLSGGSTYYADSVKGRFTISRDNAKNTVYLQMNSLKPEDNAVYYCAADAYPVYYYLSTYDPWYDYWGQGTQVTVSS", "polyreactivity (PSR sort gate)": "low polyreactivity"}
{"sequence_code": "QVQLVESGGGLVQAGCSLSLSCAASGITFRSYAKGWYRQAPGKERELVAAIRSGGSTSYADSVKGRFTISRDNAKYTVYLQMNSLKPEDTAVYYCAAGGYVPLPDITFWKFGYWGQGTQGTVSS", "polyreactivity (PSR sort gate)": "low polyreactivity"}
{"sequence_code": "QVQLVESGGGLVQAGGSLRLSCAASGSTFWYYAMGWYRQAPGKERQLVAAISRNGVSTYYADSVKGRFTISRDIAKNTVYLQMNSMKPEDTAVYYCNVVTKFTGRGYDYWGQGTQVTVSS", "polyreactivity (PSR sort gate)": "high polyreactivity"}
{"sequence_code": "QVQLVESGGGLVQAGGSLRLSCAASGSTFGANAMGWYRQAPGKERELVAAITYDGGSTYYADSVKGRFTISRDTAKNTVYLQMNSLKPEDTAVYYCAADFHIDSYYWGYYWGQGTQVTVSS", "polyreactivity (PSR sort gate)": "low polyreactivity"}

###

test: yeast display, Sf9 membrane polyspecificity reagent, FACS + sequencing; frameworks hold sequencing errors
readout_kind: polyreactivity (PSR sort gate)

{"sequence_code": "QVQLVESGGGLVQAGGSLRLSCAASGFIFFQYAMGWYRPAPGKERELVAAISGSGVTTYYADSVKGRFTISRDNAKNTVYLQMNSLKPDDTAVYYCNAGSVSDRQMDYWGQGTQVTVSS", "readout_kind": "polyreactivity (PSR sort gate)", "result": "low polyreactivity"}
{"sequence_code": "QVQLVESGGGLVQAGGSLRLSCAASGRTFYIYALGWYRQAPGKERELVAAISWGSGSTYYADSVKGRFTISRDNAKNTVYLQMNSLKPEDTAVYYCAAEYAYPSEWTYDYWGQGTQVTVSS", "readout_kind": "polyreactivity (PSR sort gate)", "result": "low polyreactivity"}
{"sequence_code": "QVQLVESGGGLVQAGGSLRLSCAASGSTFGKYAMGWYRQAPGKERELVARIDSGDRTRYADSVKGRFTISRDNAKNTVYLQMNSLKPEDTAVYYCAARYVGARNAYRMGYWGQGTQVTVSS", "readout_kind": "polyreactivity (PSR sort gate)", "result": "high polyreactivity"}
{"sequence_code": "QVQLVESGGGLVQAGGSLRLSCAASGSTILYYAMGWYRPAPGKERELVAAITWSGGPTYYADSVKGRFTISRDNAKMSGYLLMTSLKPEDTAVYYCNKADPWLRSTALNPGLYDYWGQGTQVTVSS", "readout_kind": "polyreactivity (PSR sort gate)", "result": "high polyreactivity"}
{"sequence_code": "QVQLVESGGGLFQAGGSLRLSCAASGSIFFYNNMGWYRQAPGKERELVDAISASGGRTYYADSVKGRFTISRDNAKNSVYLQMYSLKPEDTAVYYCAVRVPYRGYTRYDYWGQGTQVTVSS", "readout_kind": "polyreactivity (PSR sort gate)", "result": "high polyreactivity"}
{"sequence_code": "QVQLVESGGGLVQAGGSLRLSCAASGRTCDIYAMGWYRQAPGKERELVAAISSGGSTYYADSVKGRFTISRDNAKNTVYLQMNSLKPEDTAVYYCAVRWYDQVSRRGIGYYWGQGTLVTVSS", "readout_kind": "polyreactivity (PSR sort gate)", "result": "low polyreactivity"}
{"sequence_code": "QVQLVESGGGLVQAGGSLRLSCAASGSTYPYYAMGWYRQAPGKERELVAAITSSTGRTYYADAVKGRFTISRDNAKNTVYLQMNSLKPEDSAVYYCATYSTSVAYHLYYWGQGTQVTVSS", "readout_kind": "polyreactivity (PSR sort gate)", "result": "low polyreactivity"}
{"sequence_code": "QVQLVESGGGLVQAGGSLRLSCAASGSTFDGYAMGWYRQAPAKERELVAAISRSGGRTYYADSVNGRFTISRDNAKITVYLQMNSLKPEDTAFYYCAAMYTYKREDYWGQGTQVTVSS", "readout_kind": "polyreactivity (PSR sort gate)", "result": "high polyreactivity"}
{"sequence_code": "QVQLVESGGGLVQAGGSLRLSCAASGPIFDGYVMGWYRQAPGKERELVAAISKSGARTYYADSVKGRFTISRDNAKNTVYLQMNSLKPEHTAVYYCARFSGVDNAYDYWGQGTQVTVSS", "readout_kind": "polyreactivity (PSR sort gate)", "result": "high polyreactivity"}
{"sequence_code": "QVQLVESGGGLVQAGGSLRLSCAASGLTFYVYTMGWYRQEPGKERELVAAITGSGGSTFYADSVKGRFTISRDNAKNTVFIQMNSLKREDTAVYYCAAYYYMSDGYDYWGQGTQVTVSS", "readout_kind": "polyreactivity (PSR sort gate)", "result": "low polyreactivity"}
{"sequence_code": "QVQLVESGGGFVQAGGSLRLSCAASGSIFVTNAMGWYRQAPGKDRELVAAISVSGGSTYYADSVKGRFTISRDNAKNTVYLQMNSLKPEDTAVYYCNTVRSPPGHDYWGLGTQVTVSS", "readout_kind": "polyreactivity (PSR sort gate)", "result": "low polyreactivity"}

Cited source for all entries: the nanobody polyreactivity screen of Harvey et al. (2022)
